- subjectOfTest: T1, human GFRα3 expressed with a C-terminal mFc tag (human)
- T1 construct: also called hGFRα3-mFc
- T1 chain: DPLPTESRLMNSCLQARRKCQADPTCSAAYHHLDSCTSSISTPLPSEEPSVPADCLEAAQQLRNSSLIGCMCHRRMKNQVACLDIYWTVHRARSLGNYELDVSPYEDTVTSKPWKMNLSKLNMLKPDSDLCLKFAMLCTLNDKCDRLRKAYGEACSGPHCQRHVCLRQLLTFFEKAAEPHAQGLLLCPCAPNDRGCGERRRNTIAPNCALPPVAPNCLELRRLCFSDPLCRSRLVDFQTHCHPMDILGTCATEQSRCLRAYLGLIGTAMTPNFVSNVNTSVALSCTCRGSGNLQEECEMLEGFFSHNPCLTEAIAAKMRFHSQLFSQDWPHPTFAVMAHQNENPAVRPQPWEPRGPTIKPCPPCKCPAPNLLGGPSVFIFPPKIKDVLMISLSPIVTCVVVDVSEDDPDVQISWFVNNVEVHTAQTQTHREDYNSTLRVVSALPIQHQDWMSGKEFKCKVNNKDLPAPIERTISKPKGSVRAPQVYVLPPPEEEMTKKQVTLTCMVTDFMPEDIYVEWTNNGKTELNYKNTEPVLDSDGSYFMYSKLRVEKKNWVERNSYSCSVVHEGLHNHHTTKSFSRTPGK
- assayExplanation: SPR, Ab captured, 25C
Below: a set of entries, each annotated with reported kon.
Respond numerically; units are M⁻¹ s⁻¹ and should not be typed.

# example entries with known answers
H4H2354S (antibody, human IgG4, V domains shown, human IgG4 Fc (H4H); also called H4H2354S-1) VH: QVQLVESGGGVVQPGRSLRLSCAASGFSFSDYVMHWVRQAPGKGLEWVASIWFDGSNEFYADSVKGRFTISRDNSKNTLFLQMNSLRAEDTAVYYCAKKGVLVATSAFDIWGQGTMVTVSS VL: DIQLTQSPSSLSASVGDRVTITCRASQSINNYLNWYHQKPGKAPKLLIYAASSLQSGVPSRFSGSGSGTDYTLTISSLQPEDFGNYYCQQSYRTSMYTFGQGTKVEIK    580000
H4H2294S (antibody, human IgG4, V domains shown, human IgG4 Fc (H4H)) VH: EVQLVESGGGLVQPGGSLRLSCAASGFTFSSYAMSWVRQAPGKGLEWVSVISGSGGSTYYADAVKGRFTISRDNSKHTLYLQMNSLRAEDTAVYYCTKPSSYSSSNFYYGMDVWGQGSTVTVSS VL: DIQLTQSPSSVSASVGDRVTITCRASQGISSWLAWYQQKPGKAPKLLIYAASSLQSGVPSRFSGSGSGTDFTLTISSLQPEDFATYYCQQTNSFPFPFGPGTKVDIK    1.22e+06

Ask | Provide one value: measured kon of H4H2342P (antibody, human IgG4, V domains shown, human IgG4 Fc (H4H)) VH: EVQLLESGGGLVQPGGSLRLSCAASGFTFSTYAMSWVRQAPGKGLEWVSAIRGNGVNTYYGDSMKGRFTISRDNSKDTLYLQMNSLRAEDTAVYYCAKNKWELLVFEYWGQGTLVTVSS VL: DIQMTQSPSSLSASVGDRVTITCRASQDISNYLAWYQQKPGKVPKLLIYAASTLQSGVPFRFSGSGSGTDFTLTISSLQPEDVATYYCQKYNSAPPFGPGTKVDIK
Reply | 661000
